Provide the reported protein stability index of each item.
B1: RTN2 (parent)
chain: SERPLEDLRLRLDHLGWVARGTGS

variants of: B1; assay: protein stability index of a GFP-peptide fusion (GPS, HEK-293T) (PSI 1-6); higher = more stable; settings: c terminus: a fixed tail appended;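 note: lentivirally expressed fusions sorted by FACS into six bins by GFP to DsRed ratio, PSI derived from sequencing read proportions per bin multiplied by bin number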
The reply should be a number, written without any unit.

# input Find the recorded protein stability index belonging to L8E and report it.
# output 3.52

# input Find the recorded protein stability index belonging to R9C and report it.
# output 3.37

# input Find the recorded protein stability index belonging to R3A and report it.
# output 3.86

# input Find the recorded protein stability index belonging to A19D and report it.
# output 3.31

# input Find the recorded protein stability index belonging to R9Q and report it.
# output 2.26

# input Find the recorded protein stability index belonging to A19K and report it.
# output 3.34

# input Find the recorded protein stability index belonging to G21C and report it.
# output 1.6

# input Find the recorded protein stability index belonging to S1M and report it.
# output 2.73

# input Find the recorded protein stability index belonging to V18N and report it.
# output 3.81

# input Find the recorded protein stability index belonging to H14F and report it.
# output 1.51

# input Find the recorded protein stability index belonging to L10K and report it.
# output 2.06

# input Find the recorded protein stability index belonging to A19W and report it.
# output 2.3

# input Find the recorded protein stability index belonging to L12K and report it.
# output 3.13

# input Find the recorded protein stability index belonging to G23F and report it.
# output 2.52

# input Find the recorded protein stability index belonging to R20E and report it.
# output 4.02

# input Find the recorded protein stability index belonging to R9P and report it.
# output 2.1

# input Find the recorded protein stability index belonging to R3D and report it.
# output 2.82

# input Find the recorded protein stability index belonging to S24E and report it.
# output 4.04

# input Find the recorded protein stability index belonging to L10N and report it.
# output 2.69

# input Find the recorded protein stability index belonging to H14T and report it.
# output 1.99

# input Find the recorded protein stability index belonging to G16Y and report it.
# output 2.9

# input Find the recorded protein stability index belonging to S1K and report it.
# output 2.61

# input Find the recorded protein stability index belonging to R11F and report it.
# output 1.79

# input Find the recorded protein stability index belonging to R3F and report it.
# output 2.18

# input Find the recorded protein stability index belonging to T22W and report it.
# output 3.11

# input Find the recorded protein stability index belonging to R20Y and report it.
# output 2.34

# input Find the recorded protein stability index belonging to R3L and report it.
# output 2.49

# input Find the recorded protein stability index belonging to R20H and report it.
# output 2.77

# input Find the recorded protein stability index belonging to L15T and report it.
# output 2.26

# input Find the recorded protein stability index belonging to E6M and report it.
# output 2.29

# input Find the recorded protein stability index belonging to D13Y and report it.
# output 2.07

# input Find the recorded protein stability index belonging to L15E and report it.
# output 2.25

# input Find the recorded protein stability index belonging to L8N and report it.
# output 2.13

# input Find the recorded protein stability index belonging to G23P and report it.
# output 3.34

# input Find the recorded protein stability index belonging to A19L and report it.
# output 1.97

# input Find the recorded protein stability index belonging to D13V and report it.
# output 2.88

# input Find the recorded protein stability index belonging to L15Q and report it.
# output 2.1

# input Find the recorded protein stability index belonging to R20K and report it.
# output 3.19

# input Find the recorded protein stability index belonging to L10M and report it.
# output 2.39

# input Find the recorded protein stability index belonging to H14E and report it.
# output 2.61

# input Find the recorded protein stability index belonging to L12I and report it.
# output 2.02

# input Find the recorded protein stability index belonging to L5F and report it.
# output 3.45

# input Find the recorded protein stability index belonging to R11A and report it.
# output 1.92

# input Find the recorded protein stability index belonging to L5P and report it.
# output 2.07

# input Find the recorded protein stability index belonging to D13H and report it.
# output 1.49

# input Find the recorded protein stability index belonging to A19G and report it.
# output 3.39

# input Find the recorded protein stability index belonging to W17G and report it.
# output 4.08

# input Find the recorded protein stability index belonging to R20Q and report it.
# output 3.32

# input Find the recorded protein stability index belonging to T22N and report it.
# output 3.95

# input Find the recorded protein stability index belonging to E2A and report it.
# output 1.99

# input Find the recorded protein stability index belonging to H14W and report it.
# output 1.92

# input Find the recorded protein stability index belonging to R9E and report it.
# output 2.85

# input Find the recorded protein stability index belonging to L5D and report it.
# output 3.44

# input Find the recorded protein stability index belonging to R3N and report it.
# output 2.48

# input Find the recorded protein stability index belonging to T22H and report it.
# output 2.49

# input Find the recorded protein stability index belonging to V18Q and report it.
# output 3.02

# input Find the recorded protein stability index belonging to G16F and report it.
# output 1.98

# input Find the recorded protein stability index belonging to S24R and report it.
# output 2.36

# input Find the recorded protein stability index belonging to D7V and report it.
# output 1.9

# input Find the recorded protein stability index belonging to G16W and report it.
# output 1.81

# input Find the recorded protein stability index belonging to E6H and report it.
# output 2.34

# input Find the recorded protein stability index belonging to R3M and report it.
# output 2.99

# input Find the recorded protein stability index belonging to T22G and report it.
# output 2.23

# input Find the recorded protein stability index belonging to A19C and report it.
# output 2.58

# input Find the recorded protein stability index belonging to G21Y and report it.
# output 2.42

# input Find the recorded protein stability index belonging to V18M and report it.
# output 3.73

# input Find the recorded protein stability index belonging to L15Y and report it.
# output 2.59

# input Find the recorded protein stability index belonging to E2I and report it.
# output 2.12

# input Find the recorded protein stability index belonging to G23L and report it.
# output 2.44

# input Find the recorded protein stability index belonging to L8I and report it.
# output 2.44

# input Find the recorded protein stability index belonging to L5Y and report it.
# output 2.53

# input Find the recorded protein stability index belonging to A19E and report it.
# output 2.96

# input Find the recorded protein stability index belonging to S1C and report it.
# output 1.88

# input Find the recorded protein stability index belonging to L8D and report it.
# output 2.32

# input Find the recorded protein stability index belonging to S24T and report it.
# output 2.71

# input Find the recorded protein stability index belonging to E2H and report it.
# output 2.19

# input Find the recorded protein stability index belonging to G16Q and report it.
# output 3.01

# input Find the recorded protein stability index belonging to E6S and report it.
# output 1.93

# input Find the recorded protein stability index belonging to G21E and report it.
# output 2.05

# input Find the recorded protein stability index belonging to W17A and report it.
# output 4.49

# input Find the recorded protein stability index belonging to E6A and report it.
# output 2.27

# input Find the recorded protein stability index belonging to G23S and report it.
# output 2.61

# input Find the recorded protein stability index belonging to R9K and report it.
# output 1.92

# input Find the recorded protein stability index belonging to G23M and report it.
# output 1.87

# input Find the recorded protein stability index belonging to P4K and report it.
# output 2.38
